Molecular target: T1, human TL1A extracellular domain with N-terminal HIS and FLAG tag (human, UniProt O95150 72-251)
T1 construct: the whole entry is named
T1 sequence: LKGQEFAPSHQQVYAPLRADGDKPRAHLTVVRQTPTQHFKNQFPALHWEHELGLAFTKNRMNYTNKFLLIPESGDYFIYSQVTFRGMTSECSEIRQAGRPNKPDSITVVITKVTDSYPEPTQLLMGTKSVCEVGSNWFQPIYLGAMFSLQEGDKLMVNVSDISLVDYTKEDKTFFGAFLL
Test: SPR Run 5, Ab from supernatant captured on Protein A, TL1A 5 ug/mL, timepoint 44

Binder: 320-394 (antibody, human IgG1, name in Kabat numbering, V domains shown, human IgG1, lambda) VH: QVQLVQSGAEVKKPGASVKVSCKASLYTFTSYDINWVRQAPGQGLEWMGWLNPNSGNTGYAQKFQGRVTMTADRSTSTAYMELSSLRSEDTAVYYCAREVPETAAFEYWGQGTLVTVSS VL: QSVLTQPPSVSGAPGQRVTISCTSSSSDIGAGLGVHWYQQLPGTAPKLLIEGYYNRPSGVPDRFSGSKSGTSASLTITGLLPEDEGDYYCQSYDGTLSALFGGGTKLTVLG
Units symbol: RU
TL1A Binding Level (Early): 13

Binder: 320-379 (antibody, human IgG1, name in Kabat numbering, V domains shown, human IgG1, lambda) VH: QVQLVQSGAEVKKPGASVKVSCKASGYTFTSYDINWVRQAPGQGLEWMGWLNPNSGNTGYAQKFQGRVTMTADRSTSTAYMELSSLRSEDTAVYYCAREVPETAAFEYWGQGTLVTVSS VL: QSVLTQPPSVSGAPGQRVTISCTSSSSDIGAGLGVHWYQQLPGTAPKLLIEGYYNRPSGVPDRFSGSKSGTSASLTITGLLPEDEGDYYCQSYDGTLSYLFGGGTKLTVLG
Units symbol: RU
TL1A Binding Level (Early): 3

Binder: 320-419 (antibody, human IgG1, name in Kabat numbering, V domains shown, human IgG1, lambda) VH: QVQLVQSGAEVKKPGASVKVSCKASGYTLTSYDINWVRQAPGQGLEWMGWLNPNSGNTGYAQKFQGRVTMTADRSTSTAYMELSSLRSEDTAVYYCAREVPETAAFEYWGQGTLVTVSS VL: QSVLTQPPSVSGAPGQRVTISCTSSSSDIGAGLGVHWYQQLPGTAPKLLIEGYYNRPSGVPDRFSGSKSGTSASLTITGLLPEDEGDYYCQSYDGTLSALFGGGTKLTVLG
Units symbol: RU
TL1A Binding Level (Early): 11

Binder: 320-390 (antibody, human IgG1, name in Kabat numbering, V domains shown, human IgG1, lambda) VH: QVQLVQSGAEVKKPGASVKVSCKASQYTFTSYDINWVRQAPGQGLEWMGWLNPNSGNTGYAQKFQGRVTMTADRSTSTAYMELSSLRSEDTAVYYCAREVPETAAFEYWGQGTLVTVSS VL: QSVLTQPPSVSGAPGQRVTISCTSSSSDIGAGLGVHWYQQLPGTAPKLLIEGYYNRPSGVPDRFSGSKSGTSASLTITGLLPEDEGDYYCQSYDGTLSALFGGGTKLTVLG
Units symbol: RU
TL1A Binding Level (Early): 12

Binder: 320-409 (antibody, human IgG1, name in Kabat numbering, V domains shown, human IgG1, lambda) VH: QVQLVQSGAEVKKPGASVKVSCKASGYKFTSYDINWVRQAPGQGLEWMGWLNPNSGNTGYAQKFQGRVTMTADRSTSTAYMELSSLRSEDTAVYYCAREVPETAAFEYWGQGTLVTVSS VL: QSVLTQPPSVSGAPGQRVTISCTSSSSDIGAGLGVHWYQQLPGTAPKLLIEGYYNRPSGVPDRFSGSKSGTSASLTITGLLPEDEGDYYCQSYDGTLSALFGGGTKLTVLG
Units symbol: RU
TL1A Binding Level (Early): 10

Binder: 320-396 (antibody, human IgG1, name in Kabat numbering, V domains shown, human IgG1, lambda) VH: QVQLVQSGAEVKKPGASVKVSCKASYYTFTSYDINWVRQAPGQGLEWMGWLNPNSGNTGYAQKFQGRVTMTADRSTSTAYMELSSLRSEDTAVYYCAREVPETAAFEYWGQGTLVTVSS VL: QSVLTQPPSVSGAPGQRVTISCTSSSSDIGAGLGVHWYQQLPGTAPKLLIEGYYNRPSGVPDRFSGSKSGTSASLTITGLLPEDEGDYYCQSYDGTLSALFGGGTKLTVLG
Units symbol: RU
TL1A Binding Level (Early): 12

Binder: 320-388 (antibody, human IgG1, name in Kabat numbering, V domains shown, human IgG1, lambda) VH: QVQLVQSGAEVKKPGASVKVSCKASAYTFTSYDINWVRQAPGQGLEWMGWLNPNSGNTGYAQKFQGRVTMTADRSTSTAYMELSSLRSEDTAVYYCAREVPETAAFEYWGQGTLVTVSS VL: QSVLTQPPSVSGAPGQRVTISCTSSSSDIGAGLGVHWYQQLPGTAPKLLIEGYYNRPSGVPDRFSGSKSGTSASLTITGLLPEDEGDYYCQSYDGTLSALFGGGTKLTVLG
Units symbol: RU
TL1A Binding Level (Early): 14

Binder: 320-383 (antibody, human IgG1, name in Kabat numbering, V domains shown, human IgG1, lambda) VH: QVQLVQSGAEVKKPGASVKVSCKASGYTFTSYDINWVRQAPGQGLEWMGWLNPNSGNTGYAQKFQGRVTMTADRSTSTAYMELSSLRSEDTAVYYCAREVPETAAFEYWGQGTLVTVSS VL: QSVLTQPPSVSGAPGQRVTISCTSSSSDIGAGLGVHWYQQLPGTAPKLLIEGYYNRPSGVPDRFSGSKSGTSASLTITGLLPEDEGDYYCQSYDGTLSADFGGGTKLTVLG
Units symbol: RU
TL1A Binding Level (Early): 3

Binder: 320-414 (antibody, human IgG1, name in Kabat numbering, V domains shown, human IgG1, lambda) VH: QVQLVQSGAEVKKPGASVKVSCKASGYTSTSYDINWVRQAPGQGLEWMGWLNPNSGNTGYAQKFQGRVTMTADRSTSTAYMELSSLRSEDTAVYYCAREVPETAAFEYWGQGTLVTVSS VL: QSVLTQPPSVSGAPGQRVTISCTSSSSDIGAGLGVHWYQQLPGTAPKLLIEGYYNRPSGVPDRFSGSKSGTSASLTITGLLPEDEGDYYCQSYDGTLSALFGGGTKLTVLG
Units symbol: RU
TL1A Binding Level (Early): 7

Binder: 320-416 (antibody, human IgG1, name in Kabat numbering, V domains shown, human IgG1, lambda) VH: QVQLVQSGAEVKKPGASVKVSCKASGYTDTSYDINWVRQAPGQGLEWMGWLNPNSGNTGYAQKFQGRVTMTADRSTSTAYMELSSLRSEDTAVYYCAREVPETAAFEYWGQGTLVTVSS VL: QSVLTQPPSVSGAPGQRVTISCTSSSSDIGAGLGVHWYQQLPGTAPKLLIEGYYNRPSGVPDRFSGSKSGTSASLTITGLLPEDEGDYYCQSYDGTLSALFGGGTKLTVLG
Units symbol: RU
TL1A Binding Level (Early): 9
